// data source = patent US20140221623A1

Target: T1, Human soluble IL6-R (human, UniProt P08887 20-358)
T1 construct: Bought soluble receptor; biotinylated in some Alphascreen assays; also called sIL6-R; hIL-6R
T1 sequence (looked up): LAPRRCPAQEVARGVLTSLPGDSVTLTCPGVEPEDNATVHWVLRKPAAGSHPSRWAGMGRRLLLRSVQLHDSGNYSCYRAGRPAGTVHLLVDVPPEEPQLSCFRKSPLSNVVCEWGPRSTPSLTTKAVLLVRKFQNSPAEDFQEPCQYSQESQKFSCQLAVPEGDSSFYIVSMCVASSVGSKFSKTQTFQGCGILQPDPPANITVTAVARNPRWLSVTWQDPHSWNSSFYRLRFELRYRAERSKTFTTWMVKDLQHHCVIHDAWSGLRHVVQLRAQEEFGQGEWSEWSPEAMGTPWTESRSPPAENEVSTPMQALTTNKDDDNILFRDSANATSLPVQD
Test: SPR (Biacore 3000), IL6-R on CM5 chip
reported_endpoint: kon (M⁻¹ s⁻¹)

For orientation, consider the following solved cases.
>>> observed_value("IL6R74 (VHH, Humanized variant of IL6R04) VHH: EVQLVESGGGLVQPGGSLRLSCAASGFTFDDYDIGWFRQAPGKGREGVSGISSSDGNTYYADSVKGRFTISSDNAKNTLYLQMNSLRPEDTAVYYCAAEPPDSSWYLDGSPEFFKYWGQGTLVTVSS")
767000
>>> observed_value("IL6R81 (VHH, Humanized variant of IL6R13) VHH: EVQLVESGGGLVQPGGSLRLSCAASGFTFDDYGMSWVRQAPGRATEWVSAISWNGNNTYYTESMKGRFTISRDNAKNTVYLQMNSLRPEDTAVYYCVKGSTAIVGVPPTYPDEYDYWGQGTLVTVSS")
320000
>>> observed_value("IL6R71 (VHH, Humanized variant of IL6R04) VHH: EVQLVESGGGLVQPGGSLRLSCAASGFTFDDYDIGWFRQAPGKGREGVSGISSSDGNTYYADSVKGRFTISSDNAKNTVYLQMNSLRPEDTAVYYCAAEPPDSSWYLDGSPEFFKYWGQGTLVTVSS")
703000
>>> observed_value("IL6R88 (VHH, Humanized variant of IL6R13) VHH: EVQLVESGGGLVQPGGSLRLSCAASGFTFDDYGMSWVRQAPGKGTEWVSAISWNGNNTYYTESMKGRFTISRDNAKNTLYLQMNSLRPEDTAVYYCVKGSTAIVGVPPTYPDEYDYWGQGTLVTVSS")
230000
>>> observed_value("IL6R72 (VHH, Humanized variant of IL6R04) VHH: EVQLVESGGGLVQPGGSLRLSCAASGFTFSDYDIGWFRQAPGKGREGVSGISSSDGNTYYADSVKGRFTISSDNAKNTVYLQMNSLRPEDTAVYYCAAEPPDSSWYLDGSPEFFKYWGQGTLVTVSS")
543000

P: IL6R61 (VHH, Humanized variant of IL6R03) VHH: EVQLVESGGGLVQPGGSLRLSCAASGSIFKVNAMGWYRQAPGKGRELVAGIISGGSTNYADSVKGRLTISRDNAKNTVYLQMNSLRPEDTAVYYCSFVTTNSDYDLGRDYWGQGTLVTVSS
Q: IL6R83 (VHH, Humanized variant of IL6R13) VHH: EVQLVESGGGLVQPGGSLRLSCAASGFTFDDYGMSWVRQAPGRATEWVSAISWNGNNTYYTESMKGRFTISRDNAKNTLYLQMNSLRPEDTAVYYCVKGSTAIVGVPPTYPDEYDYWGQGTLVTVSS
Form field 'greater kon' accepts P or Q ; which applies? Identify your selection by its label.
P

1: IL6R73 (VHH, Humanized variant of IL6R04) VHH: EVQLVESGGGLVQPGGSLRLSCAASGFTFDDYDIGWFRQAPGKGREGVSGISSSDGNTYYADSVKGRFTISRDNAKNTVYLQMNSLRPEDTAVYYCAAEPPDSSWYLDGSPEFFKYWGQGTLVTVSS
2: IL6R75 (VHH, Humanized variant of IL6R04) VHH: EVQLVESGGGLVQPGGSLRLSCAASGFTFSDYDIGWFRQAPGKGREGVSGISSSDGNTYYADSVKGRFTISRDNAKNTLYLQMNSLRPEDTAVYYCAAEPPDSSWYLDGSPEFFKYWGQGTLVTVSS
Exercise: compare 1 and 2 ; which one has the greater kon? To answer, give the label that identifies your chosen option.
2
(2: 1e+06 M⁻¹ s⁻¹, 1: 698000 M⁻¹ s⁻¹)

I: IL6R65 (VHH, Humanized variant of IL6R03) VHH: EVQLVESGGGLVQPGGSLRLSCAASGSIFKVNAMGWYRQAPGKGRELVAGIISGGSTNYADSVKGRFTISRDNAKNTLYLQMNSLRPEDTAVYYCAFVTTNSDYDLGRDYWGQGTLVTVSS
II: IL6R63 (VHH, Humanized variant of IL6R03) VHH: EVQLVESGGGLVQPGGSLRLSCAASGSIFKVNAMGWYRQAPGKGRELVAGIISGGSTNYADSVKGRLTISRDNAKNTLYLQMNSLRPEDTAVYYCSFVTTNSDYDLGRDYWGQGTLVTVSS
# min-compare on kon between I and II I would appreciate it if you answered with the label of your choice.
I
